Test system: HT29 colon
measurement-description: NCI tumour cell line growth inhibition, 48 h
recorded-metric: TGI

Entry `O=C1CCSSCCC(=O)NCCN1` has what TGI?
> 100 µM

Could you do the same for `COC(=O)c1c(C)cccc1/C=C1/Cc2c(C)cccc2C1=O` , please?
> 100 µM

Let us now turn to CC(=O)N/N=C1/NN(C(C)=O)C2(S1)C(=O)Nc1ccc(Br)cc12 (configuration not stated)
> 100 µM

Do the same for `Cc1c(C(=O)/C=C/c2csc3ccccc23)[n+](=O)c2ccccc2n1[O-]` please
4.13 µM

Please do the same for `Cc1ccc(C(=O)O/N=C2/CCC/C2=C\c2ccccc2)cc1` as well.
> 100 µM

C=C(C)CCC(=O)[C@](C)(O)[C@H]1[C@H](O)C[C@@]2(C)[C@@H]3CCc4c(cc(OC5OC(CO)C(O)C(O)C5O)c(O)c4C)C3(C)C(=O)C[C@]12C (some centres not stated) ?
> 100 µM

Same lookup for NC(CSCc1ccccc1)C(=O)O (configuration not stated) , please.
> 100 µM

Similarly, `Nn1c(CCCCCCCCc2nnc(COc3c(O)ccc4ccccc34)n2N)nnc1COc1c(O)ccc2ccccc12` ?
> 100 µM

Moving on to the next compound: `C/C(N=Nc1nc2ccccc2s1)=C1/C=CC=CN1O`
> 100 µM

How about CSC1CC2C(CC1(C)O)C2(C)C (configuration not stated) ?
> 100 µM

Same question, `COCCN1C2=CCCCC2=Nc2c1nc(N)[nH]c2=O` this time
> 100 µM

Do the same for COc1cc2c(cc1OC)C(N(C)C)C(c1ccccc1)=C2Cl (configuration not stated) please
36.4 µM

What would you report for `CCCc1[nH]nc(CCC(=O)N(Cc2ccccc2)Cc2ccccc2)c1CC` ?
> 100 µM

Queued: COc1cc(C2c3cc4c(cc3OC(N3CCCC3)C2C)OCO4)cc(OC)c1OC (configuration not stated)
1.22 µM

Field entry: `O=C(c1ccc(F)cc1)c1cccc(C(=O)c2ccc(F)cc2)n1`
> 100 µM

Moving on to the next compound: COC(=O)CCC1CCc2c(OC)ccc(O)c2C1=O (configuration not stated)
> 100 µM

Also `CN(C)S(=O)(=O)c1ccc(NC(=O)COC(=O)c2ccc(S(=O)(=O)N3CCCCC3)cc2)cc1` , if possible.
> 100 µM

Another compound to look at: `O=C(Cn1ccc(=O)[nH]c1=O)Nc1ccc(C(=O)O)c(O)c1`
> 100 µM

Let us now turn to `CCC(=O)OC[n+]1ccc2c(C)c3[nH]c4ccc(OC)cc4c3c(C)c2c1`
1.57 µM

Quick one: `Cc1ccc(-c2c(N)[n+]([O-])c3ccccc3[n+]2[O-])cc1`
31.4 µM

Also need `Oc1ccc(-c2nnc3sc(-c4ccc(F)cc4)nn23)cc1` , thanks.
> 100 µM

Please answer likewise for COC1(C(=O)N[C@@H](C)c2ccc(-n3cc(F)cn3)nc2)CCC(c2nc(C)cc(Nc3cc(C)[nH]n3)n2)CC1 (some centres not stated)
22.4 µM

###

Provide the reported TGI of each item.
Tested on: OVCAR-3 ovarian
measurement-description: NCI tumour cell line growth inhibition, 48 h

Recorded TGI for `O=C(c1ccc(F)cc1)c1cccc(C(=O)c2ccc(F)cc2)n1` , please?
> 100 µM

Try the compound `O=C(CN1CCCCC1)CC(O)(C(F)(F)F)C(F)(F)F`
> 100 µM

Follow-up item: COc1cc2c(cc1OC)C1c3ccccc3CCN1CC2 (stereo not given)
> 100 µM

Same question, `CC(C)C(=O)Nc1nc2nc[nH]c2c(=O)[nH]1` this time
> 100 µM

Cool, now CC(C)(C)C[C@H]1NC(C(=O)NCC[C@H](O)CO)[C@H](c2cccc(Cl)c2)[C@@]12C(=O)Nc1cc(Cl)c(F)cc12 (stereo not given in full)
28.1 µM

###

Test system: ACHN renal
measurement-description: NCI tumour cell line growth inhibition, 48 h
I'd appreciate it if you could supply TGI values for the items below.

Entry under review: `Cc1ccc2c(ccc3c[n+]4c5ccccc5ccc4n32)c1` . Reported TGI?
> 100 µM

Do the same for `CC(C)(C)C1=Cc2cc3cc(C(C)(C)C)[nH]c(=O)c3cc2S(=O)(=O)N1` please
89.3 µM

Next molecule up: `CC1(C)C(c2ccccc2)=[N+]([O-])C(C)(C)N1O`
> 10 µM

Next: `CCC[C@H]1C(=O)N=C(N)N1C(=O)OCc1ccccc1`
> 100 µM

Again, but for `O=[N+]([O-])C(=C(N1CCCCC1)N1CCCCC1)/C(Cl)=C(\Cl)Br`
79.5 µM

Request: `CC(C)=C[C@@H]1C[C@H](n2cc(C)c(=O)[nH]c2=O)ON1CCO`
> 100 µM

Let us now turn to CCOC1CC(=O)c2c(Br)sc(Br)c21 (stereo unspecified)
36.7 µM

Another molecule to look at: `CCOC(=O)C1=C(C)N(Cc2ccccc2)C(C)=C(C(=O)OCC)C1c1ccccc1O`
> 100 µM

Repeat with CC/C=C\C=C/C(=O)N/C=C/CC1Cc2cccc(O)c2C(=O)O1 (stereo unspecified)
52.1 µM

Param item: CC(CC(C#N)(c1ccccc1)c1ccccc1)N1CCCCC1 (stereo unspecified)
> 100 µM

Follow-up item: `ClCCn1c(CCl)nc2ccc(Cl)cc21`
2.72 µM

Now try `COC(=O)c1csnn1` .
> 100 µM

Also check CC1SC(c2c(Cl)cccc2Cl)N(NC(=O)c2[nH]c3ccc(F)cc3c2-c2ccccc2)C1=O (stereo unspecified)
8.35 µM

Repeat with CSCCC(NCc1c(O)ccc2c(-c3ccccc3)cc(=O)oc12)C(=O)O (stereo unspecified)
> 100 µM

Now consider `O=C1c2ccccc2-c2c1c1ccccc1c(=O)n2CCCNCCCNCCCn1c2c(c3ccccc3c1=O)C(=O)c1ccccc1-2` .
0.388 µM

Same again, this time with CC1CCCCc2nc3c(c(=O)n21)CCCC3 (stereo unspecified)
> 100 µM

How about this molecule: CN(C(=O)C12C3C4C5C3C1(C(=O)O)C5C42)C(C)(C)C (stereo unspecified)
> 100 µM

// query: `COc1cc(OCc2ccc3oc(=O)c(-c4ccccc4)nc3c2)cc(OC)c1OC`
> 100 µM

`CC1=NOC(=O)/C1=C/c1ccccc1O` , same question.
> 100 µM

Would you mind doing `COc1c2c(c3c(c1CCC(=O)O)OC(C)(C)C=C3)OC(C)(C)C=C2` as well?
> 100 µM

Next up: COc1cc2c(cc1OC)C1c3ccccc3CCN1CC2 (stereo unspecified)
> 100 µM

And then `COc1ccc(-c2cc(=O)c3cc4c(cc3[nH]2)OCO4)c(OC)c1OC` , what is it?
> 100 µM

Again, but for `O=C1CCC(=Nc2ccc(Cl)cc2)N1C(=O)COc1ccc(OCC(=O)N2C(=O)CSC2=Nc2ccc(Cl)cc2)cc1`
> 100 µM

Now this one: `CN1CCN(CCc2cccc(C(=O)c3cnn(-c4ccc(F)cc4)c3N)c2)CC1`
> 25 µM

Param item: `N#Cc1c(-c2ccccc2)/c(=C\Nc2ccc(Cl)cc2)c(=O)n2c1nc1ccccc12`
> 100 µM

Now the same for COc1nc(NC2OCC(OC(C)=O)C(OC(C)=O)C2OC(C)=O)c(N=CC=Nc2c(NC3OCC(OC(C)=O)C(OC(C)=O)C3OC(C)=O)nc(OC)n(C)c2=O)c(=O)n1C (stereo unspecified)
> 100 µM

Then `CC1=NCCc2c1[nH]c1cc(O)ccc21` ?
> 100 µM

Also `C/C(=N/NC(N)=S)c1ccc2ccccc2c1` , if possible.
> 100 µM

Please give the result for `NC(=S)N/N=C(/CC(=O)c1ccccc1)C(=O)Nc1ccc(Cl)c(Cl)c1` too.
> 100 µM

Again, but for `CC(C)C(=O)Nc1nc2nc[nH]c2c(=O)[nH]1`
> 100 µM

Request: CCCCOC(C)(C)/C=C/C(O)[C@](C)(O)[C@H]1[C@H](O)C[C@@]2(C)[C@@H]3CCc4c(cc(OC5OC(CO)C(O)C(O)C5O)c(O)c4C)C3(C)C(=O)C[C@]12C (stereo partly specified)
> 100 µM

`CNC(=O)n1ccc2cc(Oc3ccnc(NC(=O)c4ccc(C5CCN(CCO)CC5)cc4)c3)c(OCCOC)cc21` , same question.
10.7 µM

Please give the result for `CCN(CC)S(=O)(=O)c1ccc(OC)c(Nc2ncc(-c3ccccc3)o2)c1` too.
> 25 µM

Can you handle `CCCc1[nH]nc(CCC(=O)N(Cc2ccccc2)Cc2ccccc2)c1CC` next?
> 100 µM

Query COC1(C(=O)N[C@@H](C)c2ccc(-n3cc(F)cn3)nc2)CCC(c2nc(C)cc(Nc3cc(C)[nH]n3)n2)CC1 (stereo partly specified) next
3.49 µM

Okay, and `Cc1ccc(C(=O)O/N=C2/CCC/C2=C\c2ccccc2)cc1` ?
> 100 µM

Input CCN1C(=O)N(CC)C2C1NN=c1s/c(=C\c3cccnc3)c(=O)n12 (stereo unspecified)
> 100 µM

Same question, `c1ccc2c(c1)[nH]c1nc3cc(-c4ccc5nc6c(nc5c4)[nH]c4ccccc46)ccc3nc12` this time
> 100 µM

Check `COc1ccc2nc3cc([N+](=O)[O-])ccc3c(NCCCCCN(C)C)c2c1` too.
7.49 µM

// same read-out, input: CCC(C(=O)O)c1ccc(OCc2ccccc2)cc1 (stereo unspecified)
> 100 µM

And what about the molecule `CCOC(=O)c1[nH]cc(C)c1-c1ccn(-c2ccccc2)c1` ?
> 100 µM
